Measured growth inhibition of individual entries
assay: NCI Yeast Anticancer Drug Screen. Data for the sgs1 mgt1 strain (AID 161);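 note: 0% = growth of cultures given vehicle only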; details: S. cerevisiae sgs1 mgt1 strain, at 5.0 µM (retest, dose inferred, filed as 0.5), active compounds read high
This is part of a sample that, as a whole, favours compounds with a hit. Of some 79,000 tested, about 15% had one in any assay.
Enter your answer as a number in %; do not include the unit.

Examples with answers:
MOLECULE	UNIT_OF_MEASUREMENT	growth inhibition
CN(C)CCCNc1c2ccccc2nc2ccc([N+](=O)[O-])cc12	%	21
COC(=O)c1c(C(N)=O)c(C)n(NC(=O)Nc2ccccc2)c1C	%	41
CC(C)COC(=O)c1ccc(N=Cc2ccc(C=Nc3ccc(C(=O)OCC(C)C)cc3)cc2)cc1	%	14

Q: # growth inhibition lookup, item COC(=O)c1ccc(CCC2=CC(=O)C=CC2=O)cc1
Ans: 35

Q: Fill in the blank: the reported growth inhibition of CCC[CH2][Sn]([CH2]CCC)([O]C(=O)C(OC)c1ccccc1)[O]C(=O)C(OC)c1ccccc1 (stereo unspecified) is ____.
Ans: 44

Q: Fill blank: measured growth inhibition of the molecule ClC(Cl)(Cl)/C=C/c1cnc2ccccc2n1 is ____.
Ans: 1

Just for reference, PubChem BioAssay (NCI) is where these values come from.
